tested target: ALX4 Q225E (mouse cDNA (human protein sequence …, UniProt O35137 158-291, Q213E))
Sequence (O35137 158-291 Q213E): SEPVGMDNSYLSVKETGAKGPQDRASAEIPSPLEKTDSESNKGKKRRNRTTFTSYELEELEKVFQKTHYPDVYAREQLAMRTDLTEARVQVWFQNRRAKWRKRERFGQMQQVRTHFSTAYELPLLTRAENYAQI
method description: ITC
readout type: Kd (nM)
Your answer should be a plain number; it is taken to be in nM.

Entry 14-mer monomer site ITC duplex (dsDNA) DNA 1: CGCTAATTAGCTCG DNA 2: CGAGCTAATTAGCG — recorded Kd = 52.5

Taken from paper doi:10.1101/2024.09.10.612331.
